- Tested on: Rattus norvegicus
- test.summary: PCA activity of compound in rat at 100 mg/kg dose
- Type: functional
value.kind: inhibition in vivo at 100 mg/kg (%)
Answers are plain numbers, in %.

Completed entries (count: 2):
* O=C(O)c1ccc2oc3ccc(OCCO)cc3c(=O)c2c1 | 71
* CCN(CC)CCNC(=O)c1cc(Cl)c(NC(=O)COc2ccc(C)cc2)cc1OC | 22

Hey, can you go through the list below and give me inhibition in vivo at 100 mg/kg for every item?
1. CCN(CC)CCNC(=O)c1cc(Cl)c(NC(=O)COc2ccc(Cl)cc2)cc1OC.Cl [CLOXACEPRIDE HYDROCHLORIDE]
2. CCN(CC)CCNC(=O)c1cc(Cl)c(NC(=O)COc2ccc(Cl)c(Cl)c2)cc1OC.Cl
3. CCN(CC)CCNC(=O)c1cc(Cl)c(NC(=O)C(C)(C)Oc2ccc(Cl)cc2)cc1OC.Cl

1: 69; 2: 0; 3: 0
